Source listed as patent US11041000B2.

Assay: Stability in rat plasma
Format: in vitro ADME
Conditions: both sexes, SD rat plasma, EDTA, 37° C., read-out: t½: Rat Plasma EDTA (converted)
Bridge positions count the residues as written; N and C are the ends. Square brackets hold non-standard residues; d marks the D form. Peptide text beside a SMILES is read from it. Trp(7-Me) = Cc1cccc2c(C[C@H](N)C(=O)O)c[nH]c12; 2Nal = N[C@@H](Cc1ccc2ccccc2c1)C(=O)O; AEF = NCCOc1ccc(C[C@H](N)C(=O)O)cc1; Pen = CC(C)(S)[C@H](N)C(=O)O; αMeK = C[C@](N)(CCCCN)C(=O)O
outcome-measure: half-life at 20 μM

-- ask Name the recorded half-life at 20 μM of the item CC(=O)NCCCC[C@@H]1NC(=O)[C@H](Cc2c[nH]c3c(C)cccc23)NC(=O)[C@H]([C@@H](C)O)NC(=O)[C@H](CCCCNC(C)=O)NC(=O)[C@@H](NC(C)=O)C(C)(C)SSC(C)(C)[C@@H](C(=O)N[C@@H](Cc2ccc(OCCN)cc2)C(=O)N[C@@H](Cc2ccc3ccccc3c2)C(=O)N[C@@](C)(CCCCN)C(=O)N[C@@H](CCCCNC(C)=O)C(=O)N[C@@H](CC(N)=O)C(=O)N[C@H](CC(C)C)C(N)=O)NC1=O [compound 330] (Ac-[Pen]K(Ac)T[Trp(7-Me)]K(Ac)[Pen][AEF][2Nal][αMeK]K(Ac)N[dL]-NH2; disulfide 1-6) in your answer.
-- reply > 24 h
